# Protocol Summary: amyloid nucleation score (Sup35N fusion, yeast selection) (log enrichment); library NNK3; higher = more nucleation; inactive = no reads after selection;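 also: zero at mode of non-aggregating sequences after 7 days selection at 30°C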
Measured Parameter: amyloid nucleation score

# example entries with known answers
Substance | Result
PWGLGNSARCWCFFMGHCEA | -0.889
RLAKSMH | inactive
FESLHSCV | inactive
LHVLDYDPDLRCFQMLYMCG | inactive
LCTSLLKF | -0.5
RFNGVVQEIVFCWRYRFVGN | -0.631
MGLLLFLSANDV | inactive
TLDPNIHESFFSAACWYSKA | inactive

Could you now consider this next substance?
Recorded amyloid nucleation score for VKGQWR , please?
inactive

====

# Protocol Summary: amyloid nucleation score (Sup35N fusion, yeast selection) (log enrichment); library NNK3; higher = more nucleation; inactive = no reads after selection
Measured Parameter: amyloid nucleation score

Seq Text | amyloid nucleation score
DWIKFHVTDW | inactive
KFSNSASFSGFYFNNYLSSQ | 0.95
FLKYTITHLCSRPRIYLGIS | 0.16
CNSGWGTYVV | inactive
NLEEHIRCFKGDRDPYLFF | inactive

Recorded amyloid nucleation score for SENVYPCALKRSKGMLIRMV , please?
inactive

Entry to check: SVERFIMPC
inactive

Entry to check: LVALKSHDT
inactive

Entry to check: SVPMVLFRASLVMYGLMLSQ
0.835

====

# Protocol Summary: amyloid nucleation score (Sup35N fusion, yeast selection) (log enrichment); library NNK2; higher = more nucleation; inactive = no reads after selection
Let's look at some substances and their measured amyloid nucleation score.
Number only, no unit.

# example entries with known answers
Substance | amyloid nucleation score
IRGSKSFHLCEAK | 0.213
DIWMAINVGAYGVCEFCVSR | 5.88
SERTLNLRSKSSPHPCST | 3.86

Recorded amyloid nucleation score for HTTLHSSAIQVWSWRLLYFV , please?
5.06

Entry to check: AFYCTVC
7.35

Entry to check: VLKPYM
-1.3

Entry to check: FFRGSYTRAWH
0.967

Entry to check: QVLISFG
-2.41

Entry to check: VKSTYAYPPNVVDPHIGWGH
0.99

Entry to check: MRCNYLAEYRFQRG
-0.669

Entry to check: GALGTRRFSGMCLVCESRSG
5.28

Entry to check: FLICGHCWGPNTYYNTSVLM
7.8

Entry to check: WCSCQPSFSKKHGEFYNLFL
9.21

Entry to check: LFWIGWLRRRKKGIGVANKG
0.001

Entry to check: GIMSVGTAKWRDGQPSACRK
0.996

Entry to check: KKQSRIHLSTSKNRFTWNTW
0.007

Entry to check: NPYINLLRFIDSDSSALV
-1.35

Entry to check: SISGHSWTKCVRVHYALIYG
1.07

Entry to check: CMTTYTNLIHIPIQVSTPKR
7.51

Entry to check: LCRKRYVRSHTTSWQTGGAF
0.888

Entry to check: YMERIYRWYSQCNRCQVRLW
-0.644

====

# Protocol Summary: amyloid nucleation score (Sup35N fusion, yeast selection) (log enrichment); library NNK3; higher = more nucleation; inactive = no reads after selection
Measured Parameter: amyloid nucleation score

# example entries with known answers
Substance | Result
SNITAVYAVVTNIRWLYVRT | inactive
SLAGEHPRPIVG | inactive
NQARHRSSIRRCG | inactive
EYGLNFSLNGYLSH | 0.601
STQCFDELMYA | inactive

Recorded amyloid nucleation score for LTYAALYLNGKMNVENARVV , please?
inactive

Entry to check: AMMVRCFRDPKHEK
inactive

Hey, just so you know, these numbers are from the supplement of paper PMC12042874.
